# System: Plasmodium berghei
# Assay Method Text: Screen against P. berghei liver stage (PbLuc), transformed with Luciferase, at 2uM
# Type: functional, HepG2
# Condition Set: tested at 2 uM
In all, about 68,000 compounds went through this assay and about 2,700 (4%) showed an effect of 50% or more. The entries come from a sample that favours strong results as a whole.
Reported Metric: INHIBITION (%)
Give the quantity in %, number only.

1) Cc1cc(N2CCCC(c3nncn3C3CC3)C2)ncn1 (stereo not given)	-23.49

State, in one line, measured INHIBITION of Cc1cnn(CC2CCCN2C(=O)c2cnc3n[nH]c(C)c3c2)c1 (stereo not given)
-27.31

Query INHIBITION for Cc1cc(-c2cc(C3CCOC3)c(C#N)c(N)n2)ccc1Cl (stereo not given)
21.33

Could you please provide reported INHIBITION for "CC(C)(C)CC(=O)NCC(=O)Nc1ccn(Cc2ccccc2)n1" ? Thanks!
43.87

Quick one: give measured INHIBITION for "Cc1cn(CC(=O)NC2CCC3(CC2)OCCO3)c2ccccc12"
70.17

---

# System: Plasmodium berghei
# Assay Method Text: Screen against P. berghei liver stage (PbLuc), transformed with Luciferase, at 2uM
# Assay type: functional, HepG2
# Condition Set: tested at 2 uM
Screen size: about 68,000 compounds; about 2,700 (4%) showed an effect of 50% or more. This excerpt belongs to a sample that is enriched for strong results.
// INHIBITION lookup, one value per entry
The reply must contain the numeric value and, after it, the unit.

1) CC(C)N(C)S(=O)(=O)N1CCCC1C(=O)N1CCSCC1 (centres undefined)	-36.67%
2) NC(=O)C(NC(=O)COC1CCCCC1)c1ccccc1 (centres undefined)	35.94%
3) COc1ccc(N(c2ccc(OC)cc2)c2ccc(C(=O)O)s2)cc1	14.95%
4) CN1CCc2[nH]cnc2C12CCN(C(=O)c1noc3c1CCCC3)CC2	-15.03%

Give the reported value of INHIBITION for this record: COc1ccc(N(C)C(=O)C2CN(C)CCO2)cc1Cl (centres undefined)
-18.04%

Supply recorded INHIBITION for O=C(NCCC1COc2ccccc2O1)c1ccc(N2CC(O)C2)nc1 (centres undefined) here.
13.19%

---

# Tested on: Plasmodium berghei
# Assay Method Text: Screen against P. berghei liver stage (PbLuc), transformed with Luciferase, at 2uM
# Format: functional, HepG2
# Condition Set: tested at 2 uM
In all, about 68,000 compounds went through this assay and about 2,700 (4%) showed an effect of 50% or more. For the sample, strong results were picked, then their nearest neighbours and some compounds at random.
# INHIBITION listing for each entry below
Field format: number, assumed %, no unit text.

Return INHIBITION (reported value) for this molecule: "COCCN(Cc1ccc(C)o1)C(=O)Nc1ncc(C)s1"
62.51

---

Each entry below carries its reported INHIBITION.
# System: Plasmodium berghei
# Assay Method Text: Screen against P. berghei liver stage (PbLuc), transformed with Luciferase, at 2uM
# Type: functional, HepG2
# Condition Set: tested at 2 uM
About 2,700 (4%) of roughly 68,000 compounds showed an effect of 50% or more. This is one part of a sample in which strong results are shown more often than they occur.
Write the value in % as a bare number.

1. CC(NCc1ccnc(OC2CCC2)c1)c1cnn(C)c1 (configuration not stated)	18.98
2. O=S(=O)(c1ccc(Cl)s1)N1CCCn2ncnc21	-49.84
3. O=C1C[C@H]2[C@@H](CCN2C(=O)Cc2ccccc2)N1Cc1cccnc1	30.4
4. Cc1nnsc1C(=O)N1CC[C@H](c2ccccc2)[C@@H]2[C@H]1CCCCN2C	22.81
5. c1cnc(N2CCC3(CC2)CC(NCC2CC2)c2ccccc23)nc1 (configuration not stated)	33.11
6. Cc1nc2c(C(=O)N[C@H]3C[C@H]4CN(C)CCN4C3)cccc2[nH]1	-51.5
7. CCc1ccc(S(=O)(=O)N2CCCn3ncnc32)s1	13.38
8. Cc1ccsc1CN(C)C(=O)Cn1nc(-c2ccc(F)cc2)oc1=O	51.99
9. O=C(NCCc1ccncc1)C1CCN(Cc2ccco2)CC1	-0.55
10. CCOCC(=O)N1CCC2(CC1)COC(COCc1ccccn1)C2 (configuration not stated)	18.05

Provide one value: measured INHIBITION of "O=C1C[C@H]2[C@@H](CCN2C(=O)c2cscn2)N1Cc1cccnc1"
-12.98

Complete the entry with INHIBITION for CC(NCc1cccc(COC2CCCC2)c1)c1cnn(C)c1 (configuration not stated)
12.83

---

# Tested on: Plasmodium berghei
# Assay Method Text: Screen against P. berghei liver stage (PbLuc), transformed with Luciferase, at 2uM
# Assay type: functional, HepG2
# Condition Set: tested at 2 uM
The campaign covered roughly 68,000 compounds. About 2,700 (4%) showed an effect of 50% or more. This excerpt belongs to a sample that is enriched for strong results.
Reported Metric: INHIBITION (%)
# number only, unit % dropped from output

The examples below pair each entry with its known result.
1) O=C(NCCc1ccco1)Nc1cc(C(F)(F)F)c[nH]c1=O	-6.16
2) CC(O)CN(C)S(=O)(=O)c1ccc(C#N)cc1F (stereo not drawn)	34.18
3) O=C(c1ccc(=O)[nH]n1)N1CCc2ccccc21	54.52
4) O=C(Nc1cc(C(F)(F)F)c[nH]c1=O)c1ccco1	56.67
5) CCn1nc(C)c2c1cnn2CCNS(=O)(=O)c1cccs1	61.77
6) CCN(CC)CCn1ccnc1-c1cccc(C#N)c1	15.2
7) Cn1nccc1C(=O)Nc1cc(C(F)(F)F)c[nH]c1=O	-27.71

Kindly review the next compound as well.
Input "Cc1noc(CCCC(=O)Nc2cc(C(F)(F)F)c[nH]c2=O)n1" , output reported INHIBITION.
-30.49

---

# Tested on: Plasmodium berghei
# Assay Method Text: Screen against P. berghei liver stage (PbLuc), transformed with Luciferase, at 2uM
# Type: functional, HepG2
# Condition Set: tested at 2 uM
In all, about 68,000 compounds went through this assay and about 2,700 (4%) showed an effect of 50% or more. The list comes from a sample in which strong results are over-represented; it also holds close analogues and randomly drawn compounds.
Parameter: INHIBITION. Scope: all listed entries.
Report as a plain number; the unit % is understood.

Under Plasmodium berghei: report INHIBITION of "CCn1cnnc1C1CCN(C(=O)c2c(C)oc(C)c2C)CC1" .
-11.32

Retrieve INHIBITION on Plasmodium berghei; query Cc1cc(C2CCCN2CCCc2nc3ccccc3o2)on1 (configuration not stated)
-27.69

For Plasmodium berghei, give the measured INHIBITION of the entry "CCC[C@@H](NC(N)=O)C(=O)N1Cc2ccccc2-c2ccccc2C1"
-9.87

---

# reported INHIBITION; entries follow
# System: Plasmodium berghei
# Assay Method Text: Screen against P. berghei liver stage (PbLuc), transformed with Luciferase, at 2uM
# Type: functional, HepG2
# Condition Set: tested at 2 uM
Among all 68,000 compounds or so, about 2,700 (4%) showed an effect of 50% or more. What follows is part of a selection rich in strong results, with near analogues and random picks from the rest.
API: value field is a number in %; no unit string.

1) CC(C)N(C)[C@@H]1CCN(c2ncccn2)[C@H]1Cc1ccncc1	11.9
2) CC(C)NC(=O)N1CCC2(CC1)[C@@H]1CN(C(=O)N(C)C)C[C@@H]1C(=O)N2C	24.36

Tell me its INHIBITION on Plasmodium berghei: "CC(C)(CNc1ccccc1S(=O)(=O)C(F)F)N1CCOCC1"
-64.31

Give reported INHIBITION for "CN1[C@@H](C(=O)NCC2CC2)C[C@@H]2CN(Cc3ccsc3)C[C@@H]21" (Plasmodium berghei)
59.5

---

# Tested on: Plasmodium berghei
# Assay Method Text: Screen against P. berghei liver stage (PbLuc), transformed with Luciferase, at 2uM
# Type: functional, HepG2
# Condition Set: tested at 2 uM
Among all 68,000 compounds or so, about 2,700 (4%) showed an effect of 50% or more. The list comes from a sample in which strong results are over-represented; it also holds close analogues and randomly drawn compounds.
Reported Metric: INHIBITION (%)
Report as a plain number; the unit % is understood.

1) CNC(=O)[C@@H]1C[C@H]2CN(C(=O)c3ccco3)C[C@H]2N1C(C)C	-11.99

Identify measured INHIBITION associated with "CNC(=O)C1CCN(Cc2cc3c(cc2O)CCC3)CC1"
-23.73

Given the compound "O=C(CCCN1CCCCC1)N1CCN(C(=O)c2ccc[nH]2)CC1" , write its reported INHIBITION.
2.7

Give a short answer stating reported INHIBITION for CN(Cc1nc(C2CC2)no1)C1CCS(=O)(=O)C1 (centres undefined) .
31.27
